molecules and their reported IC50
Target: AgrC-IV (Staphylococcus aureus, UniProt Q309Z2)
Sequence (Q309Z2 1-430): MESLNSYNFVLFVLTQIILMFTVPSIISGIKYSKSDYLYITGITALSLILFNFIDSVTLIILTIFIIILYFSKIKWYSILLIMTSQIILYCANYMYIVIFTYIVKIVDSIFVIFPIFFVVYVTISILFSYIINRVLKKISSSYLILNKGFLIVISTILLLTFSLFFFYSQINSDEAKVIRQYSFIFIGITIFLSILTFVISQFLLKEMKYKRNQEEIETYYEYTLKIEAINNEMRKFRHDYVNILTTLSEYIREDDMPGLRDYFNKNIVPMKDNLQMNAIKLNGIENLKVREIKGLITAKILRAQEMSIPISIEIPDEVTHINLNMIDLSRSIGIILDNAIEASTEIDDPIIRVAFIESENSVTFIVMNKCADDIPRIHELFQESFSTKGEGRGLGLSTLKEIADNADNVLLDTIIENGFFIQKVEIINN
Experiment: Hemolysis assay, wild-type group-IV strain RN4850, rabbit red blood cells
Settings: read-out: AgrC-IV IC50; hemolysis assay; 200 fM − 10 μM
Positions of bridges follow the written chain, without caps; N, C: chain ends. Residues, ends and D or L forms follow the SMILES beside them.
OBSERVATION TYPE: IC50 (nM)

CC[C@H](C)[C@@H]1NC(=O)[C@H](Cc2ccccc2)NC(=O)[C@H](C)NC(=O)[C@@H](NC(C)=O)CSC(=O)[C@H](CCSC)NC1=O [tAIP-I D2A, Ac-(C-A-F-I-M), reference compound] (Ac-CAFIM; thioester 1-C) ... 0.361
CC[C@H](C)[C@H](N)C(=O)N[C@@H](C)C(=O)N[C@H]1CSC(=O)[C@H](CC(C)C)NC(=O)[C@H](CC(C)C)NC(=O)[C@H](Cc2ccccc2)NC(=O)[C@H](CC(=O)O)NC1=O [AIP-III N2A, I-A-(C-D-F-L-L)] (H-IACDFLL; thioester 3-C) ... 2.64
CC[C@H](C)[C@@H]1NC(=O)[C@H](Cc2ccccc2)NC(=O)[C@H](CC(=O)O)NC(=O)[C@@H](NC(=O)[C@@H](NC(=O)[C@H](CO)NC(=O)[C@@H](N)Cc2ccc(O)cc2)[C@@H](C)O)CSC(=O)[C@H](CCSC)NC1=O [AIP-I, Y-S-T-(C-D-F-I-M), reference compound] (H-YSTCDFIM; thioester 4-C) ... 189
CC(C)C[C@@H]1NC(=O)[C@H](Cc2ccccc2)NC(=O)[C@H](CC(=O)O)NC(=O)[C@@H](NC(=O)[C@H](CC(N)=O)NC(=O)[C@H](C)N)CSC(=O)[C@H](CC(C)C)NC1=O [AIP-III I1A, A-N-(C-D-F-L-L)] (H-ANCDFLL; thioester 3-C) ... 12.5

###

Measured pIC50 accompanies every entry in the list below.
Target: AgrC-II (Staphylococcus aureus, UniProt O33587)
Sequence (O33587 1-437): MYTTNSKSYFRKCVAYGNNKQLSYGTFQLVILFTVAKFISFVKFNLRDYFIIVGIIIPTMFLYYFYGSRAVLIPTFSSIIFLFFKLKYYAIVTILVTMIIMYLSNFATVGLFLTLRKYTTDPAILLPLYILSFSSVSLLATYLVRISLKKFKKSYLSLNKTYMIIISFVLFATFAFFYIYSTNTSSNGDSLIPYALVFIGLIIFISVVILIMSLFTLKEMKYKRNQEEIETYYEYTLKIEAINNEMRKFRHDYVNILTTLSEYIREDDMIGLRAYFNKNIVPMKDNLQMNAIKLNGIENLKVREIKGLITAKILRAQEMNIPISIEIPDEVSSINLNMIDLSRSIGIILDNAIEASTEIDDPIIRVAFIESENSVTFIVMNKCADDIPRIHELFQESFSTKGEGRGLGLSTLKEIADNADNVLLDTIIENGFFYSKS
Type: cell-based, S. aureus
Details: read-out: AgrC-II IC50; second-generation analogues, fluorescence reporter strain; 200 fM − 10 μM
pIC50: −log10 of the molar value. Positions of bridges follow the written chain, without caps; N, C: chain ends. Residues, ends and D or L forms follow the SMILES beside them.
OBSERVATION TYPE: pIC50

CC(=O)N[C@H]1CSC(=O)[C@H](CC(C)C)NC(=O)[C@H](CC(C)C)NC(=O)[C@H](Cc2ccccc2)NC(=O)[C@H](C)NC1=O [tAIP-III D2A, Ac-(C-A-F-L-L)] (Ac-CAFLL; thioester 1-C) ... 9.05
CC[C@H](C)[C@H](NC(=O)[C@@H](N)Cc1ccc(O)cc1)C(=O)N[C@@H](CC(N)=O)C(=O)N[C@H]1CSC(=O)[C@H](CC(C)C)NC(=O)[C@H](CC(C)C)NC(=O)[C@H](Cc2ccccc2)NC(=O)[C@H](CC(=O)O)NC1=O [Y-AIP-III, Y-I-N-(C-D-F-L-L)] (H-YINCDFLL; thioester 4-C) ... 8.43
CC[C@H](C)[C@H](NC(C)=O)C(=O)N[C@@H](CC(N)=O)C(=O)N[C@H]1CSC(=O)[C@H](CC(C)C)NC(=O)[C@H](CC(C)C)NC(=O)[C@H](Cc2ccccc2)NC(=O)[C@H](CC(=O)O)NC1=O [Ac-AIP-III, Ac-I-N-(C-D-F-L-L)] (Ac-INCDFLL; thioester 3-C) ... 7.35

meta.source: patent US20200140489A1
